# viability increase listing for each entry below
Assay: doxorubicin toxicity protection in MRP-1 cells – H69AR cells, CellTiter-Glo, duplicate, MRP-1 activator project, pilot screen (AID 807);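 note: compound pretreatment 18-22 h then 72 h combined with doxorubicin; 0% = doxorubicin alone and 100% = vehicle without doxorubicin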
Conditions: H69AR viability with doxorubicin, CellTiter-Glo luminescence; at 10 µM; active compounds read high
parameter: viability increase (%)

> print(dat)
                                    compound           parameter  unit  quantitative.readout
 1  CCC(=O)N1CC(=O)Nc2ccc(F)cc2C1c1ccccc1 (centres undefined)  viability increase     %                    -1
 2  Clc1cccc(CN2CCCCC2c2cccnc2)c1 (centres undefined)  viability increase     %                  0.65
 3             CN(C)C(=O)Oc1ccc(-c2nnco2)cc1  viability increase     %                  1.79
 4  C=Cn1ccnc1P(=S)(c1cc(N(CC)CC)ns1)c1nccn1C=C  viability increase     %                 -0.61
 5  Nc1ccc(S(=O)(=O)N2CC3CC(C2)c2cccc(=O)n2C3)cc1 (centres undefined)  viability increase     %                  0.35
 6       CC(=O)Nc1ccc(OC(=O)N(C)c2ccccc2)cc1  viability increase     %                  0.24
 7  CCCC(C)C1C(C#N)=C(N)Oc2c1c(=O)oc1ccccc21 (centres undefined)  viability increase     %                 -5.21
 8  O=c1cccc2n1CC1CC2CN(C(c2ccccc2)c2sc3ncnn3c2O)C1 (centres undefined)  viability increase     %                 -1.49
 9  CCOc1ccccc1C1SCC(=O)Nc2c1c(=O)[nH]n2C(CC)CC (centres undefined)  viability increase     %                 -0.06
10  COC(=O)C(O)(c1ccc(N(C)S(=O)(=O)c2ccccc2)cc1)C(F)(F)F (centres undefined)  viability increase     %                  1.65
11          COP(=S)(OC)SCN1C(=O)c2ccccc2C1=O  viability increase     %                 -4.23
12             c1ccc2c(CN3CCCCCCC3)c[nH]c2c1  viability increase     %                 -6.65
13          O=C1OCCN1P(=O)(c1ccccc1)c1ccccc1  viability increase     %                 -0.69
14  CCOC(=O)c1cncn1C(C)c1ccccc1 (centres undefined)  viability increase     %                 -2.02
15       C=Cn1ccnc1P(=S)(c1nccn1C=C)C1CCCCC1  viability increase     %                 -1.76
16  Cc1cc(OCC(=O)NC2CCS(=O)(=O)C2)c2c3c(c(=O)oc2c1)CCC3 (centres undefined)  viability increase     %                  -5.3
17  COc1cc(CN2CC3CC(C2)c2cccc(=O)n2C3)cc(OC)c1OC (centres undefined)  viability increase     %                 -2.25
18    Cc1cccc(-n2c(-c3ccco3)nc3ccccc3c2=O)n1  viability increase     %                  0.12
19  CCCCn1c(C)c(C(=O)OCC)c2c(CN3CCOCC3)c(O)ccc21  viability increase     %                 -6.39
